Value source: patent US8211935B2

- ASSAY SYSTEM: CaV2.2 (Homo sapiens, UniProt Q00975)
- Construct: expressed in transfected cells; host or cells: HEK293
- Sequence (Q00975 whole entry): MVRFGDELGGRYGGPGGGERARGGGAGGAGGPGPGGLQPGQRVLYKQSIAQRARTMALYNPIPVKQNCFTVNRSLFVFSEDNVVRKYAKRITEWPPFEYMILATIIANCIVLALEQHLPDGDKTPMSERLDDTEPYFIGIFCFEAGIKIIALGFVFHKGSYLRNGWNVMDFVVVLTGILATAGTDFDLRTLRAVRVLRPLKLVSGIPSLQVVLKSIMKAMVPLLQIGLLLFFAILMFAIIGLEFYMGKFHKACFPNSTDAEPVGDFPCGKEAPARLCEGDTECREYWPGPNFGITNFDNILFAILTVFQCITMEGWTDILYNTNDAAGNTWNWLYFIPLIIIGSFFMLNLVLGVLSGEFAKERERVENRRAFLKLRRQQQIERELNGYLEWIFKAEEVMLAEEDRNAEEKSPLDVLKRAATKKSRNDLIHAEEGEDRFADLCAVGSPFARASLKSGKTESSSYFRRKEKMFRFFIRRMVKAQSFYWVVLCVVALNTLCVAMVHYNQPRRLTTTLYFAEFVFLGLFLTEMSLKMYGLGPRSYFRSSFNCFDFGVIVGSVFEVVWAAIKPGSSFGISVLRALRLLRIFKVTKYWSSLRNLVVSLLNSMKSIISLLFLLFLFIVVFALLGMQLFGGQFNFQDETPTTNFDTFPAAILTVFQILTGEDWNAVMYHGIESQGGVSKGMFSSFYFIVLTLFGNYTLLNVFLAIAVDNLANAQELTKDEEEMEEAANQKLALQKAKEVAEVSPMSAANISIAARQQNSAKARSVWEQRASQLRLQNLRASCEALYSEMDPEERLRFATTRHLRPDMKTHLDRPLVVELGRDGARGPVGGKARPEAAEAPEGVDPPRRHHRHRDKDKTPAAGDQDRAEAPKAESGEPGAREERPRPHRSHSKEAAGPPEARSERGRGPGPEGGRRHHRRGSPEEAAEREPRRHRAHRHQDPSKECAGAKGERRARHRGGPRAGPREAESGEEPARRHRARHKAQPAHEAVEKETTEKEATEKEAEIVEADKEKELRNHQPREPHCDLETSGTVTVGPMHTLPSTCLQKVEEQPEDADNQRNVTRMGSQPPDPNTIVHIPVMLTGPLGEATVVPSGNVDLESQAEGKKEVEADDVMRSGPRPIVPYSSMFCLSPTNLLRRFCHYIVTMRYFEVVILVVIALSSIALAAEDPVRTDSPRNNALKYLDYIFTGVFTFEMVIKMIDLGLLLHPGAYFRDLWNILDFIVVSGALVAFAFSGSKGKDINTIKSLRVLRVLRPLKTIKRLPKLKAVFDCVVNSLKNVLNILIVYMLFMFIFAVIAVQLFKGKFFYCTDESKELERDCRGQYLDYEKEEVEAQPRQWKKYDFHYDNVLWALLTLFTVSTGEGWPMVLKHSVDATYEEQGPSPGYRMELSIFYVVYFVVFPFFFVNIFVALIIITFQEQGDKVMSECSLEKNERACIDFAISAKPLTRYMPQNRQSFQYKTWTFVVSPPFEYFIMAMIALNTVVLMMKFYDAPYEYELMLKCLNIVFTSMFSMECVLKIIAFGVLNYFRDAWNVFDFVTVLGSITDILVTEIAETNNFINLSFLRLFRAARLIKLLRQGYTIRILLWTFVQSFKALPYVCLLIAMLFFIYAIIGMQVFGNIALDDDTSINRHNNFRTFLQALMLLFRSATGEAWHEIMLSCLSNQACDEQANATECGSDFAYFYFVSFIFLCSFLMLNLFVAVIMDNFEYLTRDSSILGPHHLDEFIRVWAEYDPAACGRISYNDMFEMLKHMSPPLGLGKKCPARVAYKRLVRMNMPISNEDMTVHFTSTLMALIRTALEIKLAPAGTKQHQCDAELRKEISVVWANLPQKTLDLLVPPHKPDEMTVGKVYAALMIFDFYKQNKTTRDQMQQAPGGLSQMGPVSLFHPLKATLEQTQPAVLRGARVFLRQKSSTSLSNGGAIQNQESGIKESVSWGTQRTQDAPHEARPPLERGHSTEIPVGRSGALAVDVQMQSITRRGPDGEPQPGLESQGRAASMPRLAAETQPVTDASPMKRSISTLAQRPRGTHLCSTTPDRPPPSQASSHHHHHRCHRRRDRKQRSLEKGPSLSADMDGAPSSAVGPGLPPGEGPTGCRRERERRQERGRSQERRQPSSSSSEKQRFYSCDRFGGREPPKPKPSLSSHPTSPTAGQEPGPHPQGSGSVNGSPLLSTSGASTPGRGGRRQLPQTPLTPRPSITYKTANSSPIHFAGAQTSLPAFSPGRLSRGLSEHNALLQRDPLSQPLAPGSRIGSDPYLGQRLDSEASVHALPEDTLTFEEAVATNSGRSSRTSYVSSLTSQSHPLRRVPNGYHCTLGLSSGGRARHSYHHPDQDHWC
- Sequence (P54284 whole entry partner): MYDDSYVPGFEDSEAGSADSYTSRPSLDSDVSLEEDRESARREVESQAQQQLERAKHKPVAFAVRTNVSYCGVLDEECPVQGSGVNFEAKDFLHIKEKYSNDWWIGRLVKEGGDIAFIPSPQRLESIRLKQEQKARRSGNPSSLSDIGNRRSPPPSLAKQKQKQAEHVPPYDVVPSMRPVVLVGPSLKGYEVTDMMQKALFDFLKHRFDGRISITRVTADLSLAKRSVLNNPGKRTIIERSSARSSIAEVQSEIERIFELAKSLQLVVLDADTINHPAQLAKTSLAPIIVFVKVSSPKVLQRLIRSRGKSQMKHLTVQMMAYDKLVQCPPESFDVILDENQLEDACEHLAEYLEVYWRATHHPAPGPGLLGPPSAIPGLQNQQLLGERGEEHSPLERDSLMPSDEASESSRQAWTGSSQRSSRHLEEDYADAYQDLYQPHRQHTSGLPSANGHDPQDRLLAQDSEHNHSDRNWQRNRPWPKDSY
- Sequence (P54289 25-946 partner limits assumed): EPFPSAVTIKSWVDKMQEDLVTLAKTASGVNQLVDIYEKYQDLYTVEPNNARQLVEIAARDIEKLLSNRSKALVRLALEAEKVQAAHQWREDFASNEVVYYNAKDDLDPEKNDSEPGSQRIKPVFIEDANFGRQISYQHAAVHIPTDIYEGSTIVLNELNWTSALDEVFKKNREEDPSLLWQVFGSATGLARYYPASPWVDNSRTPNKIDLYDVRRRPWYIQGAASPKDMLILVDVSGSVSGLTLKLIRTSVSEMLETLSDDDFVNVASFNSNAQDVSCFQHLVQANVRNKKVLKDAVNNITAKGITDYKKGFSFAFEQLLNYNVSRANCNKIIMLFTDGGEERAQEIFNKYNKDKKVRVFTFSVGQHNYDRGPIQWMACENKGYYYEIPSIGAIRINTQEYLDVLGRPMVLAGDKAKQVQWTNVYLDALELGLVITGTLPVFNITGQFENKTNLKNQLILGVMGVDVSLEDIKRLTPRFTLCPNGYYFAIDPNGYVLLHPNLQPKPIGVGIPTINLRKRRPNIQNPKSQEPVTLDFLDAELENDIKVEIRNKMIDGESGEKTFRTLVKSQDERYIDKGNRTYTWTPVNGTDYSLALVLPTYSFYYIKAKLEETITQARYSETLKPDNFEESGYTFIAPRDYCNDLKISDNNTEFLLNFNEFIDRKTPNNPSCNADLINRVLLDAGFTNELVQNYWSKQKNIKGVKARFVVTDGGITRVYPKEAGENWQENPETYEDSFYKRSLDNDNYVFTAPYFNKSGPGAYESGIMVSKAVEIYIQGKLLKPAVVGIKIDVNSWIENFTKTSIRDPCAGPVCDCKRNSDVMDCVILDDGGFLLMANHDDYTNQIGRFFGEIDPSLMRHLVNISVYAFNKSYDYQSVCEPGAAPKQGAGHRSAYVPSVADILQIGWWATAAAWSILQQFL
- Sequence (P54289 947-1103 partner limits assumed): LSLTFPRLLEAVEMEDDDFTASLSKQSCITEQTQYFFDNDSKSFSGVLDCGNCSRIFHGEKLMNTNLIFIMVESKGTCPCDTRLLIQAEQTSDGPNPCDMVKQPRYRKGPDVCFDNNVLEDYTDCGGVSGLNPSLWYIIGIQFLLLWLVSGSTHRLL
- TEST NAME: VIPR optical membrane potential assay with electrical stimulation
- Type: cell-based
- CONDITION SET: Table 3, biological assay data; read-out: IC50
- Protocol: Antagonist properties of test compounds were assessed as follows. Cells expressing the CaV of interest were placed into microtiter plates. […] The cells were stimulated with electrical means to evoke a CaV dependent membrane potential change from unblocked channels, which was detected and measured with trans-membrane potential-sensitive dyes. Antagonists were detected as a decreased membrane potential response to the stimulus. […] Allow solution to sit for 10 minutes. […] Run plate on the optical reader. […]
The reader will find reported IC50 values listed item by item below.
VALUE KIND: IC50

{"columns": ["COMPOUND", "VALUE KIND", "RESULT"],
 "data": [
  ["O=C(c1cc2cc(S(=O)(=O)N3CCCCCC3)ccc2o1)N1CCCCCC1 [compound 169]", "IC50", "< 5 µM"],
  ["CNC(=O)c1oc2ccc(S(=O)(=O)N3CCCC(C)C3)cc2c1C (centres unmarked) [compound 365]", "IC50", "5 to 20 µM"],
  ["Cc1c(C(=O)N(C(C)C)C(C)C)oc2ccc(S(=O)(=O)N3CCCCCC3)cc12 [compound 159]", "IC50", "5 to 20 µM"],
  ["Cc1c(C(=O)N2CCC(C)CC2)oc2ccc(S(=O)(=O)N3CCCCC3)cc12 [compound 279]", "IC50", "5 to 20 µM"],
  ["Cc1c(C(=O)N2CCOCC2)oc2ccc(S(=O)(=O)N3CCC(C)CC3)cc12 [compound 359]", "IC50", "5 to 20 µM"],
  ["Cc1c(C(=O)NCc2ccccc2)oc2ccc(S(=O)(=O)N3CCC4(CC3)OCCO4)cc12 [compound 118]", "IC50", "< 20 µM"],
  ["CC1CCCN(C(=O)c2cc3cc(S(=O)(=O)N4CCCCCC4)ccc3o2)C1 (centres unmarked) [compound 170]", "IC50", "< 5 µM"],
  ["Cc1c(C(=O)NC2CC2)oc2ccc(S(=O)(=O)Nc3ccccn3)cc12 [compound 50]", "IC50", "< 20 µM"]
]}
